Tested on: TK-10 renal
assay comment: NCI tumour cell line growth inhibition, 48 h; in the data active means GI50 below about 0.43 µM; inactive means the rest
Labels: y (active), n (inactive)

| compound | label value |
| --- | --- |
| Cn1cc(-c2csc(-c3cccc(F)c3)n2)c2cccnc21 | n |
| COc1ccc(OC(=O)O[C@H]2[C@H](O[C@H]3[C@@H](O)COC(O[C@H]4C[C@H]5[C@@H]6CC=C7C[C@@H](O)CC[C@]7(C)[C@H]6CC[C@]5(C)[C@H]4[C@H](C)C(=O)CCC(C)C)[C@@H]3OC(C)=O)OC[C@@H](O)[C@@H]2O)cc1 (stereo partly drawn) | n |
| CC(=O)[O][Hg][c]1c(C)c(C)c(C)c(C)c1C | n |
| CCCCC/C=C/C/C=C/CCCCCCCC1=NC(C)(C)CN1C(C)C | n |
| COc1cc([C@@H]2c3cc4c(cc3C(O[C@@H]3O[C@@H]5CO[C@@H](c6cccs6)OC5[C@H](O)[C@H]3O)C3COC(=O)[C@@H]32)OCO4)cc(OC)c1O (stereo partly drawn) | y |
| COc1ccc(C2CC(=O)c3c(OC)cc(OC)cc3O2)cc1 (stereo not drawn) | n |
| Nc1nccc(-c2c(-c3ccc(F)cc3)ncn2CCCN2CCOCC2)n1 | n |
| COC(=O)c1cc2c(c(C(=O)OC)c1O)C(=O)C=CC2=O | n |
| O=C(CCCSc1nc(-c2ccc(Cl)cc2)cc(-c2ccc(Cl)cc2)n1)NO | n |
| COc1ccc(C2CC(=O)c3c(O)c(OC)c(OC)c(OC)c3O2)c(O)c1 (stereo not drawn) | n |
| Cn1cc(C2=C(c3cn(C)c4c(N)cccc34)C(=O)NC2=O)c2ccccc21 | n |
| COc1ccc(-c2cc3c(nn2)-c2ccccc2C3=O)cc1 | n |
| COC(=O)[C@]12CCC(C)(C)C[C@H]1C1=CC[C@@H]3[C@@]4(C)C/C(=C/c5cccnc5)C(=O)C(C)(C)[C@@H]4CC[C@@]3(C)[C@]1(C)CC2 | n |

###

Tested on: MALME-3M melanoma
assay comment: NCI tumour cell line growth inhibition, 48 h
GI50 listing for selected compounds.

| compound | GI50 |
| --- | --- |
| C[C@]12CC[C@@H]3c4ccc(O)cc4CC[C@H]3[C@@H]1CC[C@@H]2NS(=O)(=O)c1ccc(C(F)(F)F)cc1 | 2.03 µM |
| COc1ccc(-c2cc3c(nn2)-c2ccccc2C3=O)cc1 | > 100 µM |
| CC[C@H](C)[C@H](NC(=O)[C@H]1CCCCN1C)C(=O)N(C)[C@H](CCc1nc(C(=O)N[C@@H](Cc2ccccc2)C[C@H](C)C(=O)OC)cs1)C(C)C | 3.71 µM |
| COc1ccc(-n2c(SCc3cc(OC)c(OC)c(OC)c3)nc3ccc(C)cc3c2=O)cc1 | 59.8 µM |
| CC(C)(C)OC(=O)N(CCCN(CCn1c2c(c3ccccc3c1=O)C(=O)c1ccccc1-2)C(=O)OC(C)(C)C)CCn1c2c(c3ccccc3c1=O)C(=O)c1ccccc1-2 | > 50 µM |
| O=C(CCCSc1nc(-c2ccc(Cl)cc2)cc(-c2ccc(Cl)cc2)n1)NO | 2.25 µM |
| CCOC(=O)c1c(C)n(Cc2ccc(OC)cc2)c2c1cc(O)c1[nH]c3c(c12)CCCC3 | 2.85 µM |
| COc1ccc(C2CC(=O)c3c(OC)cc(OC)cc3O2)cc1 (centres undefined) | > 100 µM |
| Cn1cc(-c2csc(-c3cccc(F)c3)n2)c2cccnc21 | 17.6 µM |
